So I've got a bunch of compounds here, and I need their selectivity ratio values.
# experiment: Selectivity index, ratio of IC50 for CHO cells to IC50 for chloroquine-sensitive Plasmodium falciparum NF54
# Format: toxicity, cell-based
# recordedConditions: hamster, read-out: Ratio IC50
One number for each entry.

Known selectivity ratio results, listed for orientation:
CN1C[C@H](CNC(=O)c2ccccc2)C[C@@H]2c3cccc4c3c(cn4C)C[C@H]21 ... 1
CN1C[C@H](CNC(=O)c2cccc(Cl)c2)C[C@@H]2c3cccc4c3c(cn4C)C[C@H]21 ... 1

Hello, I would appreciate it if you could give selectivity ratio for each entry below.
1. CCc1ccc(C(=O)NC[C@@H]2C[C@@H]3c4cccc5c4c(cn5C)C[C@H]3N(C)C2)cc1
2. CN1C[C@H](CNC(=O)c2ccc(I)cc2)C[C@@H]2c3cccc4c3c(cn4C)C[C@H]21

**Result**
[1, 2]

Hello, I would appreciate it if you could give selectivity ratio for each entry below.
1. CN1C[C@H](CNC(=O)c2cccnc2)C[C@@H]2c3cccc4c3c(cn4C)C[C@H]21
2. CN1C[C@H](CNC(=O)c2ccccc2Cl)C[C@@H]2c3cccc4c3c(cn4C)C[C@H]21
3. CN1C[C@H](CNC(=O)c2ccc(C(F)(F)F)cc2)C[C@@H]2c3cccc4c3c(cn4C)C[C@H]21
4. CCCCCCCC(=O)NC[C@@H]1C[C@@H]2c3cccc4c3c(cn4C)C[C@H]2N(C)C1
5. CCCCc1ccc(C(=O)NC[C@@H]2C[C@@H]3c4cccc5c4c(cn5C)C[C@H]3N(C)C2)cc1

**Result**
9
2
2
1
7
